test system: KO-52 cells; test: Proliferation assay (spheroid confluence, 8 days), KO-52 control cell line; assay type: cell-based, human; conditions: Homo sapiens, read-out: spheroid assay_KO-52 IC50
Property: IC50 (µM)
One number for each entry, in µM.

[[record]]
compound = "Cc1cncc2c1c(C[C@H]1CCN([C@@H](C)C3CCOCC3)C1)cn2-c1ccc(F)cc1C(=O)N(C)C(C)C (single isomer, unassigned) [Compound 49b]"
property = "IC50"
assay_value = 4.1


Could you now look at the following compound, please?
Just so you know, measured IC50 for Cc1cncc2c1c(CC1CN(CC3CCOCC3)C1)cn2-c1ccc(F)cc1S(=N)(=O)C(C)C (stereo not drawn) [Compound 80] came out at 7.2

---

Give pIC50 for every item shown.
Target: menin/MLL (terbium chelate-labeled menin, FITC-MBM1 peptide) (Homo sapiens, UniProt O00255, T541A)
Construct: Menin (a.a 1-610-6xhis tag, 2.3 mg/mL in 20 mM Hepes)
Sequence (O00255 with tags, fused parts or gaps T541A): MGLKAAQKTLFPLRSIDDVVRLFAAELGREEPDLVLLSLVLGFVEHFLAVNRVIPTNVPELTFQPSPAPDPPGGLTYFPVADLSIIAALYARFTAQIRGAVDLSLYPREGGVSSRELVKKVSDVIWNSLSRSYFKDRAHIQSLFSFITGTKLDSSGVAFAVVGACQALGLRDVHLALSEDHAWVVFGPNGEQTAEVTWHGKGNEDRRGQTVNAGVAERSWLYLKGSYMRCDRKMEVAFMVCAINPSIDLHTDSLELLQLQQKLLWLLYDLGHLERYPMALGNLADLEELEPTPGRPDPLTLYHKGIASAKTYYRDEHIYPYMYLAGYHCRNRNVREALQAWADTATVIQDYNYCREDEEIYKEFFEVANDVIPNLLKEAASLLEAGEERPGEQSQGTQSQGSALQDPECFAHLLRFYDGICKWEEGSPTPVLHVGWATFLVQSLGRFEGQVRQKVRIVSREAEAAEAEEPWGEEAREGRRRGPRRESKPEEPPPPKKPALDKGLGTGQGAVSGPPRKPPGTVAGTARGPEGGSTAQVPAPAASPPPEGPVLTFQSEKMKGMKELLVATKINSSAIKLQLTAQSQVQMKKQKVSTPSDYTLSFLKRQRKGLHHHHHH
Assay: Menin/MLL homogenous time-resolved fluorescence (HTRF) assay
Conditions: 30 min incubation
Method: 1) Menin/MLL Homogenous Time-Resolved Fluorescence (HTRF) Assay […] Compound potencies were determined by first calculating % inhibition at each compound concentration according to equation 1: […] Where LC and HC are the HTRF values of the assay in the presence or absence of a saturating concentration of a compound that competes with FITC-MBM1 for binding to menin, and HTRF^compound is the measured HTRF value in the presence of the test compound. […]
Numbers only, as −log10 of the molar value.

[[record]]
compound = "Cc1cncc2c1c(C[C@@H]1CCN(CC3CCN(C(=O)NC4CC4)CC3)C1)cn2-c1ccc(F)cc1C(=O)N(C)C(C)C"
property = "pIC50"
assay_value = 10.28

[[record]]
compound = "CCN(C(=O)c1cc(F)ccc1-n1cc(CC2CN(C(C(C)C)[C@H]3C[C@@H](N4CCN(C(C)=O)CC4)C3)C2)c2c(C)cncc21)C(C)C (stereo partly drawn) [Compound 35a]"
property = "pIC50"
assay_value = 10.23

[[record]]
compound = "Cc1cncc2c1c(CC1CN(CC3CCOCC3)C1)cn2-c1ccc(F)cc1C(=O)N1CC2(O)CC1C2"
property = "pIC50"
assay_value = 8.97

[[record]]
compound = "CC(=O)N1CCC(N2CC[C@H](Cc3cn(-c4ccc(F)cc4C(=O)N(C)C(C)C)c4cncc(C)c34)C2)C(C)C1 (single isomer, unassigned) [Compound 137a]"
property = "pIC50"
assay_value = 10.20


// switching to the query compound
Entry CNC(=O)[C@H]1CC[C@@H](CN2CC[C@H](Cc3cn(-c4ccc(F)cc4C(=O)N(C)C(C)C)c4cncc(C)c34)C2)CC1 ; pIC50 = 10.07

---

target: menin/MLL (terbium chelate-labeled menin, FITC-MBM1 peptide) (Homo sapiens, UniProt O00255, T541A); construct: Menin (a.a 1-610-6xhis tag, 2.3 mg/mL in 20 mM Hepes); assay: Menin/MLL homogenous time-resolved fluorescence (HTRF) assay; conditions: 30 min incubation
pIC50: −log10 of the molar value.
Could you label it condition met if measured pIC50 is 10 or higher, and condition not met otherwise?

[[record]]
molecule = "CC(=O)N1CC2CC(C1)C2N1CC[C@@H](Cc2cn(-c3ccc(F)cc3C(=O)N(C)C(C)C)c3cncc(C)c23)C1 (stereo partly drawn)"
assigned_label = "condition not met"


# input for lookup
(Q) Does pIC50 meet or surpass 10 for COCCNC(=O)[C@H]1CC[C@H](CN2CC(Cc3cn(-c4ccc(F)cc4C(=O)N(C)C(C)C)c4cncc(C)c34)C2)CC1 ?
(A) condition met
